This collection of values is drawn from paper PMC5691035.

measured-target: Pfs25, monomeric, produced in Nicotiana benthamiana (Plasmodium falciparum (NF54; identical …, UniProt P13829)
Sequence (P13829 22-193): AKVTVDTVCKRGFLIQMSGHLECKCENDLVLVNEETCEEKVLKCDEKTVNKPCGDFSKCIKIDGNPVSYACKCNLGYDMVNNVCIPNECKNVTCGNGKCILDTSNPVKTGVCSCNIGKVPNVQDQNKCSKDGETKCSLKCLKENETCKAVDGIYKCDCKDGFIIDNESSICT
assay-explanation: BLI
condition-label: both partners purified
assay-readout: Kd (nM)
# output: bare number, implied unit nM

Lookup: Output Kd of 1267 Fab (Fab, V domains shown, source: HEK293F, transiently expressed, purified (LambdaSelect or KappaSelect, MonoS, Superdex 200)) VH: QVQLQQSGPGLVKPSQTLSLTCAISGDSVSSNSAAWNWIRQSPSRGLEWLGRTYYRSKWYNDYAVSVRGRITINPDTSKNHFSLQLNSVTPEDTAVYFCARDLMTNSGWYVYFDCWGQGTLVTVSS VL: SYELTQPPSVSVSPGQSARITCSGDALPMKYAYWYQQKSGQAPVLVIYEDSKRPSGIPERFSGSSSGTMATLTISGAQVEDEADYYCFSTDSSGNHRVFGGGTKLT
Found: 7.9
